- target-of-assay: UniProt P41145
- procedure-text: biochemical
- Design: purchased PerkinElmer Life Sciences (Boston, Mass.)
assay-readout: IC50

# returns recorded IC50 (system: UniProt P41145) for CC[C@H]1CC2C[C@H]3c4[nH]c5ccc(O)cc5c4CCN(C2)C13
100 to 300 µM

====

- Test system: human OPRK (κ-opioid receptor)
- procedure-text: biochemical
- Assay type: binding
- recorded-conditions: ΔpKi = pKi(OPRK)-pKi(OPRM)
assay-readout: Specificity ΔpKi
// return a plain number; no unit text

Previously resolved entries follow.
Which value of Specificity ΔpKi has been reported for C=C1CC[C@@]2(O)[C@H]3Cc4ccc(O)c5c4[C@@]2(CCN3CC2CC2)[C@H]1O5 [Nalmefene, reference compound] in the records?
1.1

Fill in: Specificity ΔpKi of Oc1ccc2c3c1O[C@H]1c4[nH]c5c(c4C[C@@]4(O)[C@@H](C2)N(CC2CC2)CC[C@]314)C[C@@]1(O)[C@H]2Cc3ccc(O)c4c3[C@@]1(CCN2CC1CC1)[C@H]5O4 [NorBNI, nor-binaltorphimine, reference compound] is ___
2.0

Now examine the next entry.
Entry under review: NC(N)=Nc1ccc2c3c([nH]c2c1)[C@@H]1Oc2c(O)ccc4c2[C@@]12CCN(CC1CC1)[C@H](C4)[C@]2(O)C3 . Reported Specificity ΔpKi?
1.84

====

- procedure-text: Ascending single-dose pharmacokinetics of noribogaine in healthy volunteers
- recorded-conditions: male, human, plasma, oral
assay-readout: Vd

So what's the measured Vd for this one? CC[C@H]1CC2C[C@H]3c4[nH]c5ccc(O)cc5c4CCN(C2)C13 [Noribogaine]
1420 to 3090 L

====

- target-of-assay: human OPRK (κ-opioid receptor) (Homo sapiens, UniProt P41145)
- Construct: purchased PerkinElmer Life Sciences (Boston, Mass.)
- Sequence (P41145 whole entry): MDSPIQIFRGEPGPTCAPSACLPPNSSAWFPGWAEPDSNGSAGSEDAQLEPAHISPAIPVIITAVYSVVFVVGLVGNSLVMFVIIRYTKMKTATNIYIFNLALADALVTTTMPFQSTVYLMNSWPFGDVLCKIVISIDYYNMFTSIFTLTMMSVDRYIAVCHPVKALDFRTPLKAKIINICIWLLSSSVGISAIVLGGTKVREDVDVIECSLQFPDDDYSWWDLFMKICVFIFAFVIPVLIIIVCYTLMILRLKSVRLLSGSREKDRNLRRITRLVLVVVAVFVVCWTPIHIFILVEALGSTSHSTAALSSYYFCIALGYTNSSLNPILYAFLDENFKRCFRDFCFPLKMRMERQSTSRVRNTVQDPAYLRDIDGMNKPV
- procedure-text: biochemical
- Format: binding
- recorded-conditions: human OPRK, [3H]-U69,593; read-out: Ki
assay-readout: pKi
Note on pKi: it is the negative log10 of concentration, concentration in mol/L.

Sample COCC[C@H]1CC2CN3CCc4c([nH]c5ccccc45)[C@](C(=O)OC)(C2)[C@H]13 — what was its pKi?
5.74

====

- target-of-assay: OPRK (Homo sapiens)
- Sequence (P41145 whole entry): as the sequence (P41145 whole entry) above
- procedure-text: cell-based
- Parameters: host or cells: CHO-K1
pEC50: −log10 of the molar value.
assay-readout: pEC50

Find the recorded pEC50 belonging to CC[C@H]1CC2C[C@H]3c4[nH]c5ccc(O)cc5c4CCN(C2)C13 and report it.
~6.58

====

- target-of-assay: OPRK (Homo sapiens)
- procedure-text: biochemical
- Design: purchased PerkinElmer Life Sciences (Boston, Mass.)
- recorded-conditions: read-out: EC50
pEC50: −log10 of the molar value.
assay-readout: pEC50

Please report the recorded pEC50 for COCC[C@H]1CC2CN3CCc4c([nH]c5ccccc45)[C@](C(=O)OC)(C2)[C@H]13 .
~4.80

====

- target-of-assay: human OPRM (Homo sapiens, UniProt P35372)
- Sequence (P35372 whole entry): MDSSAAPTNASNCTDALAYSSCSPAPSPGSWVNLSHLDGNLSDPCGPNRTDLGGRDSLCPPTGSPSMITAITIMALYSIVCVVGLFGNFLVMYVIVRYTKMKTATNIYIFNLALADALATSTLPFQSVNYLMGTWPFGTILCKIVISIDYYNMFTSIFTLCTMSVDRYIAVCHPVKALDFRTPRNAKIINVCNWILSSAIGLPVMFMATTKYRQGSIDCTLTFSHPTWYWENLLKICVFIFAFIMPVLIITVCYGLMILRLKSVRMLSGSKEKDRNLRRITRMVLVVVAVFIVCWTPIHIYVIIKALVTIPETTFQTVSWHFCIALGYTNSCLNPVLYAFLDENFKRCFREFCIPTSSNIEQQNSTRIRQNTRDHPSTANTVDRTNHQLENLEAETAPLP
- procedure-text: biochemical
- Assay type: biochemical
- Design: expressed in transfected cells; host or cells: CHO-K1 (cell lines provided by Dr. Toll, Torrey Pines Institute)
assay-readout: pIC50
FYI, pIC50 means -log10 of a concentration in mol per litre.

API: value(readout= pIC50, system= human OPRM (Homo sapiens, UniProt P35372), query= CC[C@H]1CC2C[C@H]3c4[nH]c5ccc(O)cc5c4CCN(C2)C13 )
3.87

Attribution: patent US20150258108A1
